Ref: ChEMBL document CHEMBL1201862

molecular target: Cytochrome P450 3A4 (Homo sapiens); settings: Potency;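 note: confirmatory qHTS run detecting inhibitors and substrates of CYP3A4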
Sequence (P08684 whole entry): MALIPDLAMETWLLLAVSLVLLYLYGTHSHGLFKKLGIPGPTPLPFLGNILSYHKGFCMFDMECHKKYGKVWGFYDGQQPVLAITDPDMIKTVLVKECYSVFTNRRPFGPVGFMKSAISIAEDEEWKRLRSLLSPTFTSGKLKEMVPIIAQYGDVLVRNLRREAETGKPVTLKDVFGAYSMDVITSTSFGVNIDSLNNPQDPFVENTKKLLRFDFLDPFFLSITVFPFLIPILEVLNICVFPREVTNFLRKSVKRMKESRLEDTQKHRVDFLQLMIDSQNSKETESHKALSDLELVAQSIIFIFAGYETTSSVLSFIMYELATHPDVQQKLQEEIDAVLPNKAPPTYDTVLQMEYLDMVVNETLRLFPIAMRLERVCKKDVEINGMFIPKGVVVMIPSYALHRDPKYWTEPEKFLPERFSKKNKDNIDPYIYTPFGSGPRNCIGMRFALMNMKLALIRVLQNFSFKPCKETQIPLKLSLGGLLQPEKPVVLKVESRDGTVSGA
Property: AC50

Please supply the value of reported AC50 for the item C=C1CCC2C(CC2(C)C)C(=C)CC/C1=N/O (centres undefined) [5-HYDROXYIMINOISOCARYOPHYLLENE] 31.6 µM (inconclusive)

Determine from records and report AC50 for Nc1ccc2cc3ccccc3cc2c1 [2-AMINOANTHRACENE] 15.8 µM (inconclusive)

In one line, give reported AC50 of the entry COC(=O)N1[C@H](C)C=C[C@]1(Cc1ccccc1)C(=O)NCc1ccccn1 . 3.98 µM (inconclusive)

Quote AC50 reported for CCCCCc1c2c(cc(O)c1C(=O)O)OC(=O)c1c(cc(OC)cc1C(=O)CCCC)O2 [LOBARIC ACID] please. 25.1 µM (inconclusive)
